Values compiled from ChEMBL document CHEMBL3044963.

System: MDA-MB-435
Assay: Anticancer activity against Homo sapiens (human) MDA-MB-435 cells assessed as inhibition of cell survival after 72 hr by MTT assay
Type: functional, cell-based
Details: MDA-MB-435, 72 h
measurement-kind: IC50

Before answering, review these 3 worked examples.
{"chemical-string": "COc1cccc2c1C(=O)c1c(O)c3c(c(O)c1C2=O)C[C@@](O)(C(=O)CO)C[C@@H]3O[C@H]1C[C@H](N)[C@H](O)[C@H](C)O1", "IC50": "0.24 µg/mL"}
{"chemical-string": "O=C1S/C(=C\\c2ccc(Cl)cc2)C(=O)N1Cc1c2ccccc2nc2ccccc12", "IC50": "> 25 µg/mL"}
{"chemical-string": "O=C1S/C(=C\\c2ccc(Br)cc2)C(=O)N1Cc1c2ccccc2nc2ccccc12", "IC50": "> 25 µg/mL"}

Request: Param item = `COc1ccc(/C=C2\SC(=O)N(Cc3c4ccccc4nc4ccccc34)C2=O)cc1` ; retrieve measured IC50.
Response: > 25 µg/mL

Request: Param item = `O=C1CSC(=O)N1Cc1c2ccccc2nc2ccccc12` ; retrieve measured IC50.
Response: > 25 µg/mL

Request: Param item = `O=C1S/C(=C\c2c3ccccc3nc3ccccc23)C(=O)N1Cc1c2ccccc2nc2ccccc12` ; retrieve measured IC50.
Response: 7.01 µg/mL

Request: Param item = `Cc1ccc(/C=C2\SC(=O)N(Cc3c4ccccc4nc4ccccc34)C2=O)cc1` ; retrieve measured IC50.
Response: > 25 µg/mL

Request: Param item = `CS(=O)(=O)c1ccc(/C=C2\SC(=O)N(Cc3c4ccccc4nc4ccccc34)C2=O)cc1` ; retrieve measured IC50.
Response: > 25 µg/mL

Request: Param item = `COc1ccc(/C=C2\SC(=O)N(Cc3c4ccccc4nc4ccccc34)C2=O)cc1Br` ; retrieve measured IC50.
Response: > 25 µg/mL
